Biological target: KEAP1 C151 (Homo sapiens)
Construct: treating 500 μg of cell lysate generated from MDA-MB-468 breast cancer cells with DMSO or compound; endogenous in cells
Test: Nrf2 TMT measurement: in vitro TE50 for KEAP1 C151 (IA-DTB competition, targeted TMT mass spectrometry) in MDA-MB-468 cell lysate
Settings: in vitro target engagement of KEAP1 C151, targeted TMT, read-out: KEAP1_C151 TE50
test-readout: pIC50
pIC50 field: float, defined as -log10 of concentration (mol/L).

Request: Identify the reported pIC50 for the following entry. C=CC(=O)N1[C@H](CO)COC[C@H]1c1cc(Cl)nc(-c2ccn3ccnc3c2)c1 (single isomer, unassigned)
Response: 7.92

Request: Answer with the recorded pIC50 for the compound listed here: C=CC(=O)N1CCOC[C@H]1c1cc(Cl)cc(-c2ncc(OC)cn2)c1 (single isomer, unassigned)
Response: 7.77

Request: Specify measured pIC50 for C=CC(=O)N1CCOC[C@H]1c1cc(Cl)cc(C2CNC(=O)N(C)C2)c1 (single isomer, unassigned) [Compound 217] .
Response: 7.52

Request: State, in one line, measured pIC50 of C=CC(=O)N1CCOCC1c1cc(Cl)cc(-c2ccnc(N)n2)c1 (single isomer, unassigned)
Response: 7.40

Request: Tell us which pIC50 value is on record for C=CC(=O)N1CC2(CC2)OCC1c1cc(Cl)nc(-c2ccn3ccnc3c2)c1 (single isomer, unassigned)
Response: 8.18

Request: In one line, give reported pIC50 of the entry C=CC(=O)N1CCOC[C@H]1c1cc(Cl)cc(C2CNC(=O)N(C)C2)c1 (single isomer, unassigned) [Compound 216] .
Response: 6.85

Request: Consider the compound C=CC(=O)N1CCN(S(C)(=O)=O)C[C@H]1c1cc(Cl)cc(-c2ccnc(N)n2)c1 (single isomer, unassigned) . State its measured pIC50.
Response: 7.74

Request: Answer with the recorded pIC50 for the compound listed here: C=CC(=O)N1CCOC[C@H]1c1cc(Cl)cc(-c2ncc(NC(C)=O)cn2)c1 (single isomer, unassigned)
Response: 8.00

Request: Could you please provide reported pIC50 for C=CC(=O)N1C[C@@H](C)OC[C@H]1c1cc(Cl)cc(-c2ccc(F)c(C(N)=O)c2)c1 (single isomer, unassigned) ? Thanks!
Response: 6.72

Request: Supply reported pIC50 belonging to this compound: C=CC(=O)N1CCS(=O)(=O)CC1c1cc(Cl)cc(-c2cc(C)ncn2)c1 (single isomer, unassigned)
Response: 6.76

Request: Consider the compound C=CC(=O)N1CCOC[C@H]1c1cc(Cl)cc(-c2nc(N)cnc2F)c1 (single isomer, unassigned) . State its measured pIC50.
Response: 7.49

Request: Specify measured pIC50 for C=CC(=O)N1CC(C)(C)OC[C@H]1c1cc(Cl)cc(-c2cnc(N)c(N)n2)c1 (single isomer, unassigned) .
Response: 7.49

----------
Molecular target: KEAP1 C151 (Homo sapiens, UniProt Q14145)
Construct: treating 500 μg of cell lysate generated from MDA-MB-468 breast cancer cells with DMSO or compound; endogenous in cells
Sequence (Q14145 whole entry): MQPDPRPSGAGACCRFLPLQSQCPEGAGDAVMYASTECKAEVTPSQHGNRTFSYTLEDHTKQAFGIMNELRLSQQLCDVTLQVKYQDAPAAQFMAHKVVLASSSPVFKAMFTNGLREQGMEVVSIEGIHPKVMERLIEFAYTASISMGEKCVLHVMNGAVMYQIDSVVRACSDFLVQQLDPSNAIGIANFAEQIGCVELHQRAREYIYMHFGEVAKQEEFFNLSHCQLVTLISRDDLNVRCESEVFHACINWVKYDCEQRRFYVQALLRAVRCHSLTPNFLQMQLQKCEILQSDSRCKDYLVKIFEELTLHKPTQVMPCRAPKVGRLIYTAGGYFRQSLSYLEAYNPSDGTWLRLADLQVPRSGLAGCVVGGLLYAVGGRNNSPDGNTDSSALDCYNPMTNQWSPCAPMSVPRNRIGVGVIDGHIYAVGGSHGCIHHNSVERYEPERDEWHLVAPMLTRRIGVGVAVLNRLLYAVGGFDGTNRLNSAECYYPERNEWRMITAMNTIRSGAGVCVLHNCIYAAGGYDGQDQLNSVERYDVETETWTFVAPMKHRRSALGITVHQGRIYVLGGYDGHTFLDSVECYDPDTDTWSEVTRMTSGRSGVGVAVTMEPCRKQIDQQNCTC
Test: Nrf2 TMT measurement: in vitro TE50 for KEAP1 C151 (IA-DTB competition, targeted TMT mass spectrometry) in MDA-MB-468 cell lysate
Details: in vitro target engagement of KEAP1 C151, targeted TMT, read-out: KEAP1_C151 TE50
Exercise: state measured IC50 for each of the compounds provided.
Quick reminder: number only, in nM, skip the unit.

Request: Look up and report measured IC50 for this entry: C=CC(=O)N1CCOC[C@H]1c1cc(Cl)cc(-c2ncc(N)c(N)n2)c1
Response: 50

Request: Could you please provide reported IC50 for C=CC(=O)N1CCOC[C@H]1c1cc(Cl)cc(-c2cnc(OC)c(N)n2)c1 (single isomer, unassigned) ? Thanks!
Response: 140

Request: For the compound C=CC(=O)N1CC2(CC2)S(=O)(=O)CC1c1cc(Cl)cc(-c2nccc(N)n2)c1 (single isomer, unassigned) , give its reported IC50.
Response: 5.3

Request: Tell us which IC50 value is on record for C=CC(=O)N1CCOC[C@H]1c1cc(Cl)cc(-c2ccn(C)c(=O)c2)c1 (single isomer, unassigned)
Response: 50

Request: Provide measured IC50 value, entry: C=CC(=O)N1CCOC[C@H]1c1cc(Cl)cc(-c2nccc(NC(C)=O)n2)c1 (single isomer, unassigned)
Response: 86

Request: Using the record for C=CC(=O)N1CCC(F)(F)CC1c1cc(Cl)cc(-c2ncc(N)cn2)c1 (single isomer, unassigned) , state its measured IC50.
Response: 16

Request: Report IC50 for C=CC(=O)N1CC(C)(C)OC[C@H]1c1cc(Cl)cc(-c2nccc(N)n2)c1 (single isomer, unassigned)
Response: 67
